# target_or_test_system: Adenosine A2B (ADORA2B) receptor (Homo sapiens (Human), UniProt P29275)
# Sequence (P29275 whole entry): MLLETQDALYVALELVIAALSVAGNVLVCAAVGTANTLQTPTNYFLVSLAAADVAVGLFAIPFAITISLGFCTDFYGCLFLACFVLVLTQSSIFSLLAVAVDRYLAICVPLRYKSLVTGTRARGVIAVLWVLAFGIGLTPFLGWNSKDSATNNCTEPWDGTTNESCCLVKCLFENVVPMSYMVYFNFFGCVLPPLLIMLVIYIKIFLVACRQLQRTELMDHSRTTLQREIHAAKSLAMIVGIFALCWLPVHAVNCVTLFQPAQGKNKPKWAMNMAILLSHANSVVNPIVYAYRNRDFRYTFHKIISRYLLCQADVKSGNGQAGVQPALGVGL
# protocol_description: ADORA2B Receptor Binding Assay
# measurement_conditions: radioligand binding, membrane stock
# Protocol: ADORA2B Receptor Binding Assay 100 μL of Adenosine A2B membrane stock was dispensed into individual wells of an assay plate. […] 50 μL of Perkin Elmer Microscint 20 cocktail was then added, and the top of the filter plate was then sealed using Perkin Elmer TopSeal-A sealing film. ^3H trapped on the filter was counted using a Perkin Elmer MicroBeta2 Reader. […]
result_type: IC50

# sample_smiles, test_result
rows = [
    ("Cc1ccc(-c2nc(NC(=O)C3CC3)cn3cc(CF)nc23)o1", "10 to 100 nM"),
    ("Cc1nc2c(-c3ccc(C)o3)nc(N)c(Cl)n2n1", "< 10 nM"),
]

In: Would you kindly share the measured IC50 for CCS(=O)(=O)Nc1cn2cc(C)nc2c(-c2ccco2)n1 ?
Out: 100 to 1000 nM

In: Note, next up: CC(C)c1nc2c(-c3ccccc3)nc(N)c(Cl)n2n1
Out: < 10 nM

In: Request: Cc1nc2cc(NC(=O)C3CCC3)nc(-c3ccc(C)o3)n2n1
Out: 10 to 100 nM

In: Can you handle CC(C)c1cn2cc(NC(=O)C3CC3)nc(-c3ccco3)c2n1 next?
Out: 10 to 100 nM

In: Next record, please: Cc1cc2c(nc(-c3ccc(C)o3)n3nc(C(C)C)nc23)[nH]1
Out: 10 to 100 nM

In: And what about the molecule Cc1nc2c3cc(C(C)(C)O)[nH]c3nc(-c3ccc(C)o3)n2n1 ?
Out: < 10 nM

In: How about this molecule: CC(=O)c1cccc(-c2nc(NC(=O)OC(C)(C)C)cc3nc(C)nn23)c1
Out: > 1000 nM

###

# target_or_test_system: Adenosine A2B (ADORA2B) receptor (Homo sapiens (Human))
pIC50: −log10 of the molar value.
result_type: pIC50

# sample_smiles, pIC50
records = [
    ("Cc1nc2cc(NC(=O)C(F)(F)F)nc(-c3ccco3)n2n1", "6.00 to 7.00"),
    ("Cc1nc2c3c(nc(-c4ccc(C)o4)n2n1)NC(=O)C3", "7.00 to 8.00"),
]

In: So what's the measured pIC50 for this one? COc1ccc(Cc2nc3cc(N)nc(-c4ccc(C)o4)n3n2)cc1
Out: 6.00 to 7.00

In: Field entry: Cc1nc2cc(N)nc(-c3ccc(S(C)(=O)=O)cc3)n2n1
Out: < 6.00

In: Same question, Cc1ccc(-c2nc(N)c(Cl)n3nc(C)nc23)cc1 this time
Out: > 8.00

In: Now give it for Cc1ccc(-c2nc(N)cn3c(C)cnc23)o1 too.
Out: < 6.00

In: Try this compound too: CCc1nc2cc(N)nc(-c3ccc(C)o3)n2n1
Out: 6.00 to 7.00

In: Field entry: CC(=O)Nc1cc2nc(C3CNC3)nn2c(-c2ccc(C)o2)n1
Out: < 6.00

In: Similarly, Cc1nc2cc(NC(N)=O)nc(-c3ccco3)n2n1 ?
Out: 7.00 to 8.00

###

What follows is a collection of IC50 values obtained with Adenosine A2a (ADORA2A) receptor (Homo sapiens (Human), UniProt P29274).
Sequence (P29274 whole entry): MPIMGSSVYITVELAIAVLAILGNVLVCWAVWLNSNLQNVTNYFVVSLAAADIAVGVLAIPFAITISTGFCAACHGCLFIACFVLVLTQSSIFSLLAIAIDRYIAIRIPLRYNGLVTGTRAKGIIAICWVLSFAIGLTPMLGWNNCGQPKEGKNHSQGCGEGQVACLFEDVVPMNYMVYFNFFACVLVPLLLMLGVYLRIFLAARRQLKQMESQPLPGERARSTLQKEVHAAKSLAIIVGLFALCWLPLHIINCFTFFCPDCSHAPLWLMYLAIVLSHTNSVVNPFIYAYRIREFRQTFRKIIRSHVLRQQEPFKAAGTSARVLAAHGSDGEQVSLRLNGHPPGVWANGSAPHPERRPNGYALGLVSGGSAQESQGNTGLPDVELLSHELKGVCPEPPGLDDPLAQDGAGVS

# sample_smiles, result_type, test_result
records = [
    ("CC(=O)Nc1cc2nc(C3CCC3)nn2c(-c2ccc(C)o2)n1", "IC50", "< 10 nM"),
]

In: Fill in the blank: the reported IC50 of Cc1ccc(-c2nc(N)cn3c(C)cnc23)o1 is ____.
Out: > 1000 nM

In: Subsequent entry: Nc1nc(-c2ccccc2)c2nc(C(F)(F)F)cn2c1Cl
Out: 10 to 100 nM

In: Cc1ccc(-c2nc(NC(=O)C3CC3)cn3nc(C(F)F)nc23)o1 ?
Out: < 10 nM

In: Same read-out for CC(=O)Nc1cc2nc(C)nn2c(-c2ccc(S(C)(=O)=O)cc2)n1 ?
Out: > 1000 nM

In: Please give the result for Cc1nc2c(Br)c(N)nc(-c3ccccc3)n2n1 too.
Out: 10 to 100 nM

In: // repeat for Cc1cncc(-c2nc(N)c(Cl)c3nc(C)nn23)c1 and report
Out: > 1000 nM

In: Field entry: Cc1nc2c(-c3ccccc3)nc(N)c(Cl)n2n1
Out: < 10 nM

In: Check Cc1nc2cc(NC(=O)CF)nc(-c3ccco3)n2n1 too.
Out: 10 to 100 nM

In: Please do the same for Cc1cc2c(nc(-c3ccco3)n3nc(C(F)(F)F)nc23)[nH]1 as well.
Out: < 10 nM

In: Also Cc1nc2c3cc(C)[nH]c3nc(-c3ccc(C)o3)n2n1 ?
Out: < 10 nM

In: What about this compound? Cc1ccc(-c2nc(NC(=O)C3CC3)cn3nc(CF)nc23)o1
Out: < 10 nM

In: # repeat for Cc1nc2cc(NC(=O)C(F)F)nc(-c3ccco3)n2n1
Out: < 10 nM

###

# target_or_test_system: UniProtKB P29275
pIC50: −log10 of the molar value.
result_type: pIC50

# sample_smiles, pIC50
data = [
    ("Cc1nc2c(-c3ccccc3)nc(N)c(Br)n2n1", "> 8.00"),
]

In: Provide the documented pIC50 with UniProtKB P29275 as the system for Cc1nc2cc(NC(=O)C3CC3)nc(-c3cccc(F)c3)n2n1
Out: 7.00 to 8.00

In: Next up: Cc1ccc(-c2nc(NC(=O)C3CC3)cn3ncnc23)o1
Out: > 8.00

In: What do you have for CNC(=O)Nc1cn2cc(C)nc2c(-c2ccco2)n1 ?
Out: 7.00 to 8.00

In: Another molecule: CC(=O)Nc1cc2nc(C)nn2c(-c2ccc(S(=O)(=O)N(C)C)cc2)n1
Out: < 6.00

In: And Cc1nc2c(-c3ccccc3)nc(N)c(Cl)n2n1 ?
Out: > 8.00

In: One more molecule: Cc1nc2c3cn[nH]c3nc(-c3ccc(C)o3)n2n1
Out: 7.00 to 8.00

In: Next entry: CC(=O)Nc1cn2cc(C)nc2c(-c2ccc(C)o2)n1
Out: 7.00 to 8.00

In: # iterate: CC(=O)Nc1cc2nc(C)nn2c(-c2cnco2)n1
Out: < 6.00

In: Now the same for Cc1nc2c3cccnc3nc(-c3ccco3)n2n1
Out: < 6.00

In: Proceed to Cc1ccc(-c2nc(NC(=O)C3CC3)cc3nc(C4CNC4)nn23)o1
Out: < 6.00

In: Same read-out for Cc1nc2c(Br)c(N)nc(-c3ccc(F)cc3)n2n1 ?
Out: 6.00 to 7.00

In: Same for CC(=O)Nc1cc2nc(C3COC3)nn2c(-c2ccco2)n1
Out: 7.00 to 8.00

In: Likewise for CC(=O)Nc1cc2nc(C(F)F)nn2c(-c2ccco2)n1 ?
Out: > 8.00

In: Do the same for Cc1nc2c(Cl)c(N(C)C)nc(-c3ccc(C)o3)n2n1 please
Out: < 6.00

###

# target_or_test_system: Adenosine A2B (ADORA2B) receptor (Homo sapiens (Human))
result_type: IC50

Consider the worked cases shown below.
# compound, IC50
data = [
    ("Cc1ccc(-c2nc(N)cn3cc(C(F)(F)F)nc23)o1 [Compound 195]", "100 to 1000 nM"),
    ("Cc1nc2cc(NC(=O)NCCN3CCCCC3)nc(-c3ccco3)n2n1 [Compound 158]", "10 to 100 nM"),
    ("Cc1cccc(-c2nc(N)c(Cl)n3nc(C)nc23)c1 [Compound 183]", "10 to 100 nM"),
]

We now examine a further compound.
In: Reported IC50 for CC(=O)c1cccc(-c2nc(N)cc3nc(C)nn23)c1 [Compound 95] : what is it?
Out: > 1000 nM

###

Record set of IC50 for target or system Adenosine A2B (ADORA2B) receptor (Homo sapiens (Human), UniProt P29275).

Before answering, review these 3 worked examples.
# compound, IC50
data = [
    ("Cc1nc2c(Cl)c(N)nc(-c3ccc(F)c(F)c3)n2n1 [Compound 141]", "100 to 1000 nM"),
    ("Cc1nc2c(Cl)c(N)nc(-c3ccccc3Cl)n2n1 [Compound 84]", "> 1000 nM"),
    ("CCNC(=O)Nc1cc2nc(C)nn2c(-c2ccco2)n1 [Compound 155]", "10 to 100 nM"),
]

In: Which IC50 is listed for Cc1nc2c(-c3ccccc3C)nc(N)c(Cl)n2n1 [Compound 182] ?
Out: 100 to 1000 nM

In: Another compound to look at: Cc1nc2c(-c3ccc(C)o3)nc(N)cn2n1 [Compound 168]
Out: 10 to 100 nM
